ASSAYED_TARGET: T1, hGITR.mFc (human)
T1 construct: soluble dimeric construct with mouse Fc; also called dimeric human GITR
T1 chain: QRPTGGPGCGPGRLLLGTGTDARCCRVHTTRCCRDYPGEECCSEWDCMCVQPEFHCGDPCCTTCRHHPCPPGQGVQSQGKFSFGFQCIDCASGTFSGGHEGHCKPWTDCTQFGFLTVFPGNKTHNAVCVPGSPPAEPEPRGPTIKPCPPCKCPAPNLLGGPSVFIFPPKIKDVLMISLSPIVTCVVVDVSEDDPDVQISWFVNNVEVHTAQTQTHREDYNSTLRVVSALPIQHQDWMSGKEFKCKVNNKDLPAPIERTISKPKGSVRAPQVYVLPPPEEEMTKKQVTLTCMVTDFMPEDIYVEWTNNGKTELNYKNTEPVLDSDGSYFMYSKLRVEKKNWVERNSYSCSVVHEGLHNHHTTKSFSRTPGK
ASSAY_COMMENT: SPR 37C, mAb capture
Protocol: (Table 3). […] GITR proteins were injected over the sensor surface at a flow rate of 30 μL/minute. […] Antibody-reagent association was monitored for 4 minutes while dissociation in HBS-ET running buffer (10 mM HEPES, 150 mM NaCl, 3 mM EDTA, 0.05% (v/v) Surfactant P20, pH 7.4) was monitored for 10 minutes. Kinetic association (kₐ) and dissociation (kd) rate constants were determined by fitting the real-time sensorgrams to a 1:1 binding model using Scrubber 2.0c curve fitting software. […]
The binders listed here are annotated with their kon.
Numeric answer only, unit M⁻¹ s⁻¹ assumed.

BINDER	kon (M⁻¹ s⁻¹)
H1H14491P (antibody, human IgG1, V domains shown, human IgG1 (H1H)) VH: QVQLVESGGGVVQPGRSLRLSCVASGFTFSDYGMHWVRQAPGKGLEWVAVIWYEGSNKYYADSVTGRFTISRDNSKNTLFLQMNSLKAEDTAEYYCAKDGGQLAYQYYYGMDVWGQGTTVTVSS VL: AIQMTQSPSSLSASVGDRVTLTCRASQGIRNDLGWYQQKPGKAPKSLIYAASNLQSGVPSRFSGSGSGTDFTLTISSLQPEDSATYYCLQDYNYPRTFGQGTKVEIK	842000

Which measured kon value corresponds to H4H14475P (antibody, human IgG4, V domains shown, human IgG4 (H4H)) VH: QVQLVESGGGVVQPGRSLRLSCAASGTIFSTHGMHWVRQAPGKGLEWVAVISYDGNKKYYAGSVKGRFTISRDNSKNTLYLQMNDVRSEDTAVYHCTTDITGITDYWGQGTLVTVSS VL: DIQMTQSPSSLSASVGDRVTITCRASQGIGNDLGWYQQKLGKAPKRLIYAASSLESGVPSRFSGSGSGTEFILTISSLQAEDFATYYCLQHNGFPTFGQGTKVEIK ?
1.6e+06
